For each entry below, report its ExcessHSA synergy score with TAK-243 value.
Test system: NCI-H295R
measurementProtocol: ExcessHSA synergy score with TAK-243; higher = less synergy (negative = synergistic)
runParameters: combined with: TAK-243 (MLN-7243) matrix, 9-point 1:2 dilution
Reply: number alone, nothing else.

Item under review: CC(C)Nc1cc(-c2c[nH]c(C(=O)N[C@H](CO)c3cccc(Cl)c3)c2)c(Cl)cn1 [Ulixertinib] . Reported ExcessHSA synergy score with TAK-243?
-674

Item under review: CC1(C)CCC2(CC1)N[C@@H](C(=O)N[C@@H]1CC[C@@H](C(N)=O)OC1)[C@H](c1ccnc(Cl)c1F)[C@]21C(=O)Nc2cc(Cl)ccc21 [Milademetan] . Reported ExcessHSA synergy score with TAK-243?
-111

Item under review: O=C(c1cc(Cc2n[nH]c(=O)c3ccccc23)ccc1F)N1CCN(C(=O)C2CC2)CC1 [Olaparib] . Reported ExcessHSA synergy score with TAK-243?
859

Item under review: CC(C)n1c(=O)n(C)c2cnc3cc(F)c(-c4ccc(OCCCN5CCCCC5)nc4)cc3c21 [AZD-1390] . Reported ExcessHSA synergy score with TAK-243?
286

Item under review: C=CCNc1nc(N)c(C(=O)c2ccc(F)s2)s1 [TT-10] . Reported ExcessHSA synergy score with TAK-243?
922

Item under review: CCN(C(=O)c1cc(F)ccc1Oc1cncnc1N1CC2(CCN(C[C@H]3CC[C@H](NS(=O)(=O)CC)CC3)CC2)C1)C(C)C [SNDX-5613] . Reported ExcessHSA synergy score with TAK-243?
50

----------
System: CU-ACC2
measurementProtocol: area under concentration-response curve (viability) (AUC (a.u.)); higher = less active
runParameters: 48 h
Classify by measured area under concentration-response curve: 1 if it is equal to or exceeds 600, -1 if it is smaller.

Check this molecule for area under concentration-response curve at or above 600: CCCCc1ccc2[nH]c(NC(=O)OC)nc2c1
-1

Check this molecule for area under concentration-response curve at or above 600: O=C(O)[C@H](Cc1c[nH]c2ccccc12)N1C(=O)c2ccccc2C1=O
-1

Check this molecule for area under concentration-response curve at or above 600: N#Cc1ccc2c(c1)CN([S+](=O)([O-])c1cccs1)[C@H](Cc1ccccc1)CN2Cc1cnc[nH]1
-1

Check this molecule for area under concentration-response curve at or above 600: CN(C)[S+](=O)([O-])c1ccc2c(c1)C(=Cc1cc3c([nH]1)CCCC3)C(=O)N2
1

Check this molecule for area under concentration-response curve at or above 600: COc1cccc2c1C(=O)c1c(O)c3c(c(O)c1C2=O)C[C@@](O)(C(=O)CO)C[C@@H]3O[C@H]1C[C@H](N)[C@@H](O)[C@H](C)O1
-1

Check this molecule for area under concentration-response curve at or above 600: [O-]C(=O)C1=C(C(=C(Cl)C(=C1Cl)Cl)Cl)C/2=C/3\C=C(I)/C(=O)/C(=C3OC4=C2C=C(I)C(=C4I)[O-])I
-1

----------
System: NCI-H295R
measurementProtocol: area under concentration-response curve (viability) (AUC (a.u.)); higher = less active
runParameters: 48 h
experimentalEndpoint: area under concentration-response curve

Item under review: CCCN(CCC)C(=O)C\1=C\C2=CC=C(C=C2\N=C(N)/C1)C3=CC=C(C=C3)C(=O)N4CCCC4 . Reported area under concentration-response curve?
581

Item under review: C=C(C)[C@H]1Cc2c(ccc3c2O[C@@H]2COc4cc(OC)c(OC)cc4[C@@H]2C3=O)O1 . Reported area under concentration-response curve?
445

Item under review: COc1ccc2c(c1OC)C(=O)O[C@H]2[C@H]1c2c(cc3c(c2OC)OCO3)CCN1C . Reported area under concentration-response curve?
519

Item under review: CC(=O)NCC(=O)N1[C@@H]2CC[C@H]1c1ccc(Nc3ncc(C(F)(F)F)c(NC4CCC4)n3)cc12 . Reported area under concentration-response curve?
459

Item under review: CC1=C(/C=C/C(C)=C/C=C/C(C)=C/C(=O)O)C(C)(C)CCC1 . Reported area under concentration-response curve?
476

Item under review: Cc1nnc(C(C)C)n1C1CC2CCC(C1)N2CCC(NC(=O)C1CCC(F)(F)CC1)c1ccccc1 (centres undefined) . Reported area under concentration-response curve?
451

Item under review: COC1=C(OC)C(=O)C(C/C=C(\C)CC/C=C(\C)CC/C=C(\C)CC/C=C(/C)CC/C=C(\C)CC/C=C(\C)CC/C=C(\C)CC/C=C(\C)CC/C=C(\C)CCC=C(C)C)=C(C)C1=O . Reported area under concentration-response curve?
559

Item under review: CN(C)C(=O)COC(=O)Cc1ccc(OC(=O)c2ccc(NC(=N)N)cc2)cc1 . Reported area under concentration-response curve?
541

Item under review: Cc1nc[nH]c1CN1CCN(C(=O)N[C@@H](CC(C)C)C(=O)O)[C@@H](Cc2ccccc2)C1=O . Reported area under concentration-response curve?
545

Item under review: NC(=O)N1CCC(CC(=O)N2CCC([C@H]3c4ncc(Br)cc4CCc4cc(Cl)cc(Br)c43)CC2)CC1 . Reported area under concentration-response curve?
440

Item under review: C=CC(=O)N1CC/C(=C\c2ccc(F)c([N+](=O)[O-])c2)C(=O)/C(=C/c2ccc(F)c([N+](=O)[O-])c2)C1 . Reported area under concentration-response curve?
333

Item under review: CC(N[C@H]1C[C@@H]1c1ccccc1)c1ccc2c(c1)OCCO2 (some centres undefined) . Reported area under concentration-response curve?
432

Item under review: Cc1c(F)cc(C(=O)NC2CC2)cc1-c1ccc(C(=O)NCC(C)(C)C)cn1 . Reported area under concentration-response curve?
394

Item under review: CCc1c(C(=O)NNC(=O)[C@@H](O)c2cc(F)cc(F)c2)ccc(O)c1C . Reported area under concentration-response curve?
441

Item under review: CCN1\C=C(C(O)=O)/C(=O)C2=C1C(=C(N3CCNC(C)C3)C(=C2)F)F (centres undefined) . Reported area under concentration-response curve?
605

Item under review: CCc1ccc(CCOc2ccc(CC3SC(=O)NC3=O)cc2)nc1 (centres undefined) . Reported area under concentration-response curve?
110

Item under review: COC1=CC2=NC=CC(=C2C=C1)OC3=CN=C(NC(=O)C/4=C(C)/N(CC(C)(C)O)N(C4=O)C5=CC=CC=C5)C=C3 . Reported area under concentration-response curve?
369

Item under review: CCNC(=O)Nc1ccc(Oc2ncnc(N)c2/C=N/OC)cc1Cl . Reported area under concentration-response curve?
567

Item under review: CO[C@@H]1[C@@H](OC(N)=O)[C@@H](O)[C@H](OC2=CC=C3\C(=C(NC(=O)C4=CC=C([O-])C(=C4)CC=C(C)C)/C(=O)OC3=C2C)O)OC1(C)C . Reported area under concentration-response curve?
539

Item under review: C[C@@H]1Cc2c([nH]c3ccccc23)[C@@H](c2c(F)cc(/C=C/C(=O)O)cc2F)N1CC(C)(C)F . Reported area under concentration-response curve?
593

Item under review: CN1C(=O)\C(=C/C2=C1N=C(NC3CCOCC3)N=C2)OC4=C(F)C=C(F)C=C4 . Reported area under concentration-response curve?
565

Item under review: FC1=C(C=C(C/C2=N/NC(=O)C3=C2C=CC=C3)C=C1)C(=O)N4CCN(CC4)C(=O)C5CC5 . Reported area under concentration-response curve?
434

Item under review: CC(=O)Nc1ccc(C(=O)NC(C)(C)C)cc1 . Reported area under concentration-response curve?
284

Item under review: CC1COC2(CCN(CC2)C/3=N/C(=O)C4=CC(=CC(=C4S3)[N+]([O-])=O)C(F)(F)F)O1 (centres undefined) . Reported area under concentration-response curve?
462

Item under review: Cc1ccc(Nc2nccc(N(C)c3ccc4c(C)n(C)nc4c3)n2)cc1[S+](N)(=O)[O-] . Reported area under concentration-response curve?
570

Item under review: CCN(CC)CCNC(=O)c1c(C)[nH]c(/C=C2/C(=O)Nc3ccc(-c4csc(-c5ccccc5)n4)cc32)c1C . Reported area under concentration-response curve?
453

Item under review: CCC(CCCC)COC(=O)C(\C#N)=C(\c1ccccc1)c2ccccc2 (centres undefined) . Reported area under concentration-response curve?
583

Item under review: CC(=O)C\1=C(/C)C2=CN=C(NC3=CC=C(C=N3)N4CCNCC4)N=C2N(C5CCCC5)C1=O . Reported area under concentration-response curve?
487

Item under review: COc1cc(C)c(/C=C/C(C)=C/C=C/C(C)=C/C(=O)O)c(C)c1C . Reported area under concentration-response curve?
524

Item under review: O=C(Nc1cccnn1)N1CCC(=Cc2cccc(Oc3ccc(C(F)(F)F)cn3)c2)CC1 . Reported area under concentration-response curve?
445

Item under review: CCN(C(=O)C/1=C(O)/C2=C(C=CC=C2Cl)N(C)C1=O)C3=CC=CC=C3 . Reported area under concentration-response curve?
555

Item under review: C=C1/C(=C\C=C2/CCC[C@]3(C)[C@@H]([C@H](C)/C=C/[C@H](C)C(C)C)CC[C@@H]23)C[C@@H](O)C[C@@H]1O . Reported area under concentration-response curve?
372

Item under review: OC1=CC=C(C=C1)\C2=C(O)\C(=O)C3=C(O2)C=C(O)C=C3O . Reported area under concentration-response curve?
484

Item under review: CCCNC(=O)[C@H]1O[C@@H]1C(=O)N[C@H](C(=O)N1CCC[C@H]1C(=O)OC)C(C)CC (some centres undefined) . Reported area under concentration-response curve?
494

Entry source: the supplement of paper PMC10949913
